B1: Transcriptional repressor p66-beta, residues 415 to 455; numbered along this chain, Q8WXI9 (parent)
chain: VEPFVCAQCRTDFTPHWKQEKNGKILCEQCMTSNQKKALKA

variants of: B1; test: abundance fitness (aPCA) (normalised: wild type 0, dead -1); higher = more abundant; growth selection in yeast, the domain comes from the species named; conditions: Homo sapiens
// label 0 strictly below -0.1 in abundance fitness; label 1 otherwise

    mut  qualitative_label
0  C27R            label 0
1  M31K            label 1
2  E20W            label 0

Qu. Decide: abundance fitness of `P3C` >= -0.1?
Ans. label 1

Qu. Please check the record `C30K` and state if its abundance fitness is at or above -0.1.
Ans. label 0

Qu. Determine whether this variant has abundance fitness no lower than -0.1: `L26H`
Ans. label 1

Qu. Entry `T32M` : is its abundance fitness no less than -0.1?
Ans. label 0

Qu. Is abundance fitness at least -0.1? Consider `Q8V`
Ans. label 1

Qu. Threshold query (abundance fitness >= -0.1) on `C9W`
Ans. label 0

Qu. Given `E28R` , state whether its abundance fitness is at least -0.1.
Ans. label 0
